# measurementTarget: Nuclear receptor coactivator 1 (Homo sapiens)
# assayRemarks: SRC1 coactivator transcriptional activity inhibitors, confirmation, cell-based, luminescence, quadruplicate (AID 588820)
# testSettings: HEK293 GAL4-SRC1 luciferase reporter, at 3.6 µM
Active and inactive are the calls of the source.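 The calls were made as follows: active = mean inhibition above 46.68%, the untreated control wells mean plus 3 SD; inactive = the rest.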
API: response.call in yes for active, no for inactive

* O=C(c1ccccc1)N1CCN(Cc2ccc3c(c2)OCO3)CC1 | no
* Oc1ccc(Nc2ncnc3scc(-c4ccccc4)c23)cc1 | no
* CCCN(CC)c1ncnc2[nH]ncc12 | yes
* CNc1snc(C)c1C(=O)OCC(=O)Nc1ccc(C)cc1F | no
* COc1ccc(N(Cc2cc3cc(OC)ccc3[nH]c2=O)S(=O)(=O)c2ccc(NC(C)=O)cc2)cc1 | no

Q) GET /call?item= O=C(NCc1cccc(C(F)(F)F)c1)c1csc([C@@H]2O[C@H](CO)[C@H](O)[C@H](O)[C@H]2O)n1 returns the recorded outcome of this test.
A) no

Q) Short answer needed: outcome of this test for COc1cccc(C(C(=O)NC2CCCC2)N(C(=O)c2ccco2)c2ccc(C(C)=O)cc2)c1OC (configuration not stated) ?
A) no

Q) # lookup: test call for COc1ccc(-c2ncncc2-c2ccccc2)c(O)c1
A) no

Q) How did this test come out for CC1(C)N=C(N)N=C(N)N1c1ccc(CCCCc2ccccc2)cc1 ?
A) yes

Q) Outcome logged for O=C1N=C(N2CCCC2)S/C1=C\C=C\c1ccccc1 in this assay:
A) no

Q) Returns: the outcome recorded for CC1CC(C)C(=NNC(N)=O)C(C(O)CC2CCC(=O)NC2=O)C1 (configuration not stated) in this assay.
A) no

Q) Could you check what this test reported for Cc1c(P(=S)(c2ccccc2)c2ccccc2)[n+]2ccccc2n1C/C=C/c1ccccc1 ?
A) no

Q) Record lookup: outcome of this test for Brc1ccc2ncnc(Nc3ccc(N4CCOCC4)cc3)c2c1 ?
A) yes

Q) Entry Cc1oc2c(Cl)c(Cl)c(O)c(CN(C)C)c2c1C(=O)c1ccc(Cl)cc1 : call = ?
A) no

Q) Hello, I am checking results. What call was entered for COc1ccccc1CNC(=O)C(=O)NCCC1CCCCN1S(=O)(=O)c1ccc(C)cc1 (configuration not stated) ?
A) no

* * *

# measurementTarget: Nuclear receptor subfamily 5 group A member 2 (Homo sapiens) (UniProt O00482)
# Sequence (O00482 whole entry, looked up): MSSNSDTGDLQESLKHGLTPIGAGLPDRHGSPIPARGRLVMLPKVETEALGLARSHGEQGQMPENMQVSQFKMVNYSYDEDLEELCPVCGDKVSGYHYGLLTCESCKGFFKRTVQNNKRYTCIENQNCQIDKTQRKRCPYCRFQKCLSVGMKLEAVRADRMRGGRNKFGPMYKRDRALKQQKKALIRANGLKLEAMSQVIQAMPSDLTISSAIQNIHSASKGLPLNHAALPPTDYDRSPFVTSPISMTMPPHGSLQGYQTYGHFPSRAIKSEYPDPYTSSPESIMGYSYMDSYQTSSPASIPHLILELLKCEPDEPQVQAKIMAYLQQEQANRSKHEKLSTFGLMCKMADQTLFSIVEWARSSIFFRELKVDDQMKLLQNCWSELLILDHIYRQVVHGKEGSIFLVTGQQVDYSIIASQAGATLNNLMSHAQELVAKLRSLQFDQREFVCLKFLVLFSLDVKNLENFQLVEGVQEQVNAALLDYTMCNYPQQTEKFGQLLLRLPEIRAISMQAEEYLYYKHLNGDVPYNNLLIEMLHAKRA
# assayRemarks: LRH-1 (NR5A2) inverse agonists, retest, confirmation, cell-based, luminescence (AID 651613);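 also: HEK293T cells co-transfected with LRH-1 and StAR promoter luciferase reporter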
# testSettings: cell-based LRH-1 luciferase reporter, inverse agonism; at 3.6 µM; hits give high values
Each record's inhibition is compared with small value = under 50%, mid value = from 50% up to 60%, large value = 60% and over to give its class.

* CCCCC(=O)NC(c1ccccc1)c1ccc2cccnc2c1O (stereo unspecified) | large value
* COc1ccc(NC(=O)COc2ccc(N(C)S(=O)(=O)c3ccc(Cl)cc3)cc2)cc1OC | large value
* O=C(Nc1ccccc1C(=O)NC1CC1)c1ccc([N+](=O)[O-])o1 | large value

Q) Kindly state the category for this compound: COc1ccc(NC(=O)c2cc(-c3cc(Cl)ccc3OC)n[nH]2)cc1OC
A) small value

Q) Band assignment needed for Nc1ccc(Oc2ccccc2-c2ccccc2)cc1 please.
A) mid value

Q) Form field 'band' for Cc1ccc(C2CC(C(F)(F)F)n3nc(C(=O)NCc4ccco4)cc3N2)cc1 (stereo unspecified)
A) small value

Q) Looking at COc1ccc(C(=O)OCC(=O)Nc2ccc(N3CCOCC3)cc2)cc1OC , which class would you pick?
A) mid value

Q) Entry COc1ccc(-c2sc(C(=O)c3ccc(Cl)cc3Cl)cc2CC(=O)O)cc1 belongs to which category?
A) small value

Q) # classify by inhibition band: OCCCNc1ncnc2oc(-c3ccccc3)c(-c3ccccc3)c12
A) small value

Q) Any idea which band CC1(C)CC(N2CCCCC2)=CC(=[N+]2CCCCC2)C1 is in?
A) large value

Q) Returns: class label. Input: CCCc1cc(=O)oc2c(C)c(OCC(=O)NC3CC(C)(C)NC(C)(C)C3)ccc12
A) mid value

Q) Hello team, could you let me know which band the following compound falls into: COc1ccc(NC(=O)c2cc(-c3cc(F)ccc3OC)n[nH]2)cc1OC
A) small value

Q) Category lookup for the compound CC(=O)N1CCc2c(sc(NC(=O)c3ccc([N+](=O)[O-])o3)c2C(N)=O)C1
A) large value

Q) Assign a bin to C[C@H](CO)N1C[C@H](C)[C@H](CN(C)Cc2ccncc2)Oc2cc(-c3ccccc3F)ccc2S1(=O)=O
A) large value

Q) Assign a bin to Cc1nn(Cc2ccc(Cl)cc2)c(C)c1NC(=O)c1noc2c1CCCCC2
A) small value

Q) Pick a category. Item: Cc1cccc(/C=C(\c2nc3ccccc3[nH]2)S(=O)(=O)c2ccccc2)c1
A) small value

# credit: PubChem BioAssay
